Exercise: state measured growth for each of the compounds provided.
test system: HCC-2998 colon; assay: NCI-60 one-dose screen, 48 h (100 = growth as untreated, 0 = no growth, -100 = all killed); settings: 10 µM unless noted
About 83,000 compounds went through this panel and 20% of them were active in at least one assay; those are over-represented in the sample as a whole.
Please reply with the bare figure in % and do not write the unit itself.

The compound listed as CCCSc1nc(NCCc2c[nH]c3ccccc23)c(C#N)c(-c2ccc(F)cc2)n1 shows growth equal to 44.4

Measured growth, O=C(COc1ccc(NC(=O)Nc2ccc(Cl)c(Cl)c2)cc1)N=Nc1c(O)[nH]c2ccc([N+](=O)[O-])cc12 : 82.6

growth measured on O=C1NC(=O)/C(=C/c2ccccc2OCc2cc3ccccc3nc2Cl)S1 = 114

So, Cn1cc(-c2nc(N)nnc2-c2c[nH]c3ccc(F)cc23)c2cccnc21 ? Its growth was 72.8

Input NS(=O)(=O)c1ccc(CCNC(=O)CSc2ccc(-c3ccc(Br)cc3)nn2)cc1 . Output growth: 92.5

---

tested on: NCI-H522 lung; assay: NCI-60 one-dose screen, 48 h; conditions: 10 µM unless noted
The panel holds about 83,000 compounds, 20% with a hit somewhere; the sample as a whole holds those more often. Calls of active or inactive are those of the source. How the source made its calls: active means growth percent below 10; inactive means the rest.
Would you mind answering with one of these outcomes? YES for active, NO for inactive

Give the logged outcome of this assay for the following compound: COc1cc2c(c(OC)c1OC)C(=O)CC(c1cccc(NC(=O)c3cccc([N+](=O)[O-])c3)c1)O2 (centres undefined)
YES

Name the outcome recorded for OCNc1ccc(-n2cnc3cc(-c4ccc(O)cc4)ccc32)cc1C(F)(F)F in the assay.
YES

# fetch the recorded call for CN(C)c1nc(NCCNS(=O)(=O)c2ccc(C(=O)/C=C/c3ccc(C(F)(F)F)cc3)cc2)nc(Nc2ccc(F)cc2)n1 here
YES

Can you look up the reported call for Cc1ccc(-c2nc(C#N)c(S(=O)(=O)N3CCN(S(=O)(=O)c4ccc(Cl)cc4)CC3)o2)cc1 for me?
NO

Hi, sorry to bother you, what did the test record for O=C1N/C(=N\c2nccs2)S/C1=C\C=C/c1ccccc1 ?
NO

# lookup: test call for CSc1ccccc1NC(=O)c1ccc2nn(/C(C#N)=C/c3ccccn3)nc2c1
YES

Short answer needed: outcome of this test for O=C(/C=C/c1ccc(-c2ccccc2)cc1)c1nc2ccccc2n1Cc1ccc(F)cc1 ?
NO

Just curious, what result did O=C(O)c1ccc(-c2ccc(/C=N/NC(=O)c3[nH]c4ccc(Br)cc4c3-c3ccccc3)o2)cc1 get here?
YES

// return assay outcome for CC(=O)c1cccc(NC(=O)CCC(=O)NS(=O)(=O)c2ccc(C)cc2)c1
NO

---

Give measured growth for each item. Keep answers brief.
tested on: M14 melanoma; assay: NCI-60 one-dose screen, 48 h (100 = growth as untreated, 0 = no growth, -100 = all killed); conditions: 10 µM unless noted
The panel holds about 83,000 compounds, 20% with a hit somewhere; the sample as a whole holds those more often.
API: value field is a number in %; no unit string.

Memo: CC(/C=C1\SC(=S)N(CCCC(=O)NC(CC(C)C)C(=O)O)C1=O)=C\c1ccccc1 (centres undefined) , reported growth: 78.6

Value of growth reported for the compound O=C(Nc1ccc(C(F)(F)F)cc1)Nc1ccc2oc(=O)ccc2c1 is 16.3

// sample O=C(N=Nc1c(O)[nH]c2ccc(Cl)cc12)c1ccc2nc(-c3ccccc3)[nH]c2c1 , its growth was 68.6

Field growth (entry COc1cc2oc(-c3cccc(C(=O)Nc4ccc(Cl)cc4)c3)cc(=O)c2c(OCC(=O)N[C@@H](Cc2ccccc2)C(=O)O)c1OC ) reads 109

// growth value for CC1=C(C(=O)OC(C)C)C(c2cccc(O)c2)NC(=S)N1 (centres undefined) : 109

The compound identified as CC(=O)N1CCN(Cc2ccc3c(NNC(=O)c4cnccn4)nc4cc(F)ccc4n23)CC1 registered its growth at -31.4

Sample CN(C)CCOc1ccc(C(=O)C2[C@H](c3ccc(Cl)cc3)[C@@H](c3ccccc3)NC23C(=O)Nc2ccccc23)cc1 (some centres undefined) ; growth observed: 45.2

Field growth (entry CC1=C(C(=O)c2ccccc2)C(c2cccc(Cl)c2Cl)n2c(nc3ccccc32)N1 (centres undefined) ) reads 81.8

response.value for COc1ccc(C(=O)/C=C/c2ccccc2Br)cc1S(N)(=O)=O (field: growth) = -11.7

---

test system: OVCAR-8 ovarian; test: NCI-60 one-dose screen, 48 h (100 = growth as untreated, 0 = no growth, -100 = all killed); details: 10 µM unless noted
About 83,000 compounds went through this panel and 20% of them were active in at least one assay; those are over-represented in the sample as a whole.
Parameter: growth (%)
Only the number, expressed in %, is required.

Reported growth of COCOc1cc2oc(C(=O)N[C@@H](Cc3ccccc3)C(O)C(=O)NCc3ccccc3)c(C)c(=O)c2cc1OCOC (some centres undefined) : 22.2

The reported value for CC12CC[C@@H]3[C@]4(C)COC(c5cn[nH]c5-c5ccc(Br)cc5)O[C@@H]4CC[C@@]3(C)[C@@H]1CC(C1=CCOC1=O)O2 (some centres undefined) in terms of growth is 62.6

Cn1cc(-c2cc3nc(-c4cn(C)c5ncccc45)cc(N)n3n2)c2ccccc21 has a reported growth of 10.2

Lab note: measured growth of Cn1cc(-c2cc(N)n3nc(-c4c[nH]c5ccccc45)cc3n2)c2cccnc21 was 27.5

The molecule listed as Cc1ccc2c(c1)nc(-c1ccccc1)n2CC(=O)N=Nc1c(O)[nH]c2ccc(Br)cc12 shows growth equal to -67.2

What the record says about Cc1cc(N=C2NC(=O)CS2)n[nH]1 : growth is 106

Sure, the documented growth for Clc1cccc(-c2ccc(OCCCN3CCN(c4ccncc4)CC3)cc2)c1 is 37.9

Field growth (entry Cc1cc2c(cc1Cl)C(=O)/C(=C/c1ccc(F)cc1)O2 ) reads 97.5

Entry CCN1C(=O)N(CC)C2NNC(Sc3c(C(=O)O)c4ccccc4n(C4CCCC4)c3=O)=NC21 (centres undefined) ; growth = 4.93

---

System: SF-295 CNS
Experiment: NCI-60 one-dose screen, 48 h
Conditions: 10 µM unless noted
Method: Cells are grown in 96 well plates and exposed to the test compound for 48 hours. Compounds are tested at a single concentration, which is 10^-5 M for most compounds. The reported endpoint is percent growth (GI% or GIPRCNT), where numbers from 0 - 100% represent growth inhibition, and numbers from -100% - 0 represent cell death. For example, a value of 40 represents 60% growth inhibition. A value of 0 means no net growth occurred over the course of the experiment. […]
Compounds without any hit were thinned out: in the full panel of roughly 83,000, 20% have a hit. Activity calls are given as the source filed them. How the source made its calls: active means growth percent below 10; inactive means the rest.
Respond with a class label; see yes (1) for active, no (0) for inactive

Hello, I am checking results. What call was entered for COc1cc2oc(-c3cccc(C(=O)Nc4ccc(Cl)cc4)c3)cc(=O)c2c(OCCNC(=O)[C@H](CO)NC(=O)OC(C)(C)C)c1OC ?
yes (1)

Outcome logged for CNC(=O)c1cc(Oc2ccc3nc(NC(=O)Nc4cccc(OC(F)(F)F)c4)sc3c2)ccn1 in this assay:
yes (1)

How was Cn1cc(-c2nc(N)nnc2-c2c[nH]c3ccc(F)cc23)c2cccnc21 classified in this test?
no (0)

Per the assay record, what outcome was assigned to C=C1CC[C@@H]2[C@]3(C)COC(c4ccccc4)O[C@@H]3CC[C@@]2(C)[C@@H]1C/C=C1/C(=O)OCC1OC(C)=O (stereo partly specified) ?
yes (1)

Please indicate how the test categorized CC(C)CCNC(=O)N/C(N)=N/c1nc2ccccc2s1 .
no (0)

Hey, what did the test say about C#CCOc1ccc(/C=N/Nc2nc(-c3ccc(F)cc3)cs2)cc1OC ?
no (0)

Query: recorded result category for N/N=C(\N)c1c(N)nc(=S)[nH]c1-c1ccc(Cl)cc1Cl in this test
no (0)

What was the test verdict on COc1ccc(C2=NN(c3ccccc3)C(c3ccc(OCc4ccccc4)c(OC)c3)C2)cc1OC (stereo unspecified) ?
no (0)

// param item: CC(=O)Nc1cccc(Nc2nc(NCc3ccccc3)c3ccccc3n2)c1 ; yields the recorded call
yes (1)

Just curious, what result did CC(=O)Nc1ccc(C(=O)NC(=S)Nc2ccc(S(N)(=O)=O)cc2)cc1 get here?
no (0)

// param item: COc1ccc(/C=C/c2n(Cc3ccc4ccccc4c3)c3ccccc3[n+]2Cc2ccc3ccccc3c2)cc1 ; yields the recorded call
yes (1)

Which outcome did this test record for the molecule Cc1ccc([C@H]2C(C(=O)c3ccc(Cl)cc3)C3(N[C@@H]2c2ccccc2)C(=O)Nc2ccccc23)cc1 (stereo partly specified) ?
no (0)

Field: outcome | Entry: COc1cc(NC(=O)c2cccc(C3CCc4c(cc(OC)c(OC)c4OC)O3)c2)cc(OC)c1OC (stereo unspecified)
yes (1)

Query: recorded result category for COc1ccc(/C=N/NC(=O)Cn2nc(Cc3ccc(OC)cc3)c3onc(C)c3c2=O)cc1 in this test
no (0)

Short answer needed: outcome of this test for N#Cc1ccc(/C=N/NC(=O)c2[nH]c3ccc(Br)cc3c2-c2ccccc2)o1 ?
no (0)

# outcome recorded in this test, key = CC(C)c1sc(NC(=O)c2cc(NC(=O)c3cc(NC(=O)c4nccn4C)cn3C)cn2C)nc1C(=O)NCCCN(C)C
no (0)

# lookup: test call for C=C1CC[C@@H]2[C@]3(C)COC(c4cn[nH]c4-c4ccc(C)cc4)O[C@@H]3CC[C@@]2(C)[C@@H]1C/C=C1/C(=O)OCC1O (stereo partly specified)
no (0)

Please share the test call associated with CC1[C@H]2[C@H](C[C@H]3[C@@H]4CC=C5c6sc(Nc7ccccc7F)nc6CC[C@]5(C)[C@H]4CC[C@@]32C)O[C@]12CC[C@@H](C)CO2 (stereo partly specified) .
yes (1)

Query: recorded result category for CCCSc1nc(NCCc2c[nH]c3ccccc23)c(C#N)c(-c2ccc(F)cc2)n1 in this test
no (0)

Field: outcome | Entry: CSc1ccc(C(=O)Nc2ccc3nnn(/C(C#N)=C/c4ccccn4)c3c2)cc1
no (0)

Given S=C(Nc1ccccc1)Nc1ccc(OCc2nc3ccccc3[nH]2)cc1 , state the outcome it received in this test.
no (0)

Hey, what did the test say about N#Cc1c(-c2ccc(Cl)cc2)nc2n[nH]c(-c3ccc(Cl)cc3)c2c1-c1cccs1 ?
no (0)

Tell me the assay call for COc1ccc(NC(=O)[C@H](CO)NC(=O)OC(C)(C)C)cc1C(=O)Nc1cccc(C2CC(=O)c3c(cc(OC)c(OC)c3OC)O2)c1 (stereo partly specified) please.
no (0)

# outcome recorded in this test, key = Cc1cc2nc3c4ccccc4n(CCNCCN(C)C)c3nc2cc1C
no (0)

Test call for this molecule, please: c1ccc(-c2csc(Nc3cccc(Nc4nc(-c5ccccc5)cs4)c3)n2)cc1
no (0)

Returns: the outcome recorded for Cc1ccc(S(=O)(=O)c2nc(S(=O)(=O)c3ccc(C)cc3)c(N3CCC(O)CC3)s2)cc1 in this assay.
no (0)

I'd appreciate the recorded outcome for COc1ccc(C2=NN(c3ccccc3)C(c3ccc(OC)c(OCc4ccccc4)c3)C2)cc1OC (stereo unspecified) from this test.
no (0)

What was the test verdict on CC1=C(C#N)C2=NNCC(c3ccccc3)=NN2C(c2ccccc2)=C1 ?
no (0)

Call for entry O=c1[nH]c2ccccc2cc1CSc1cccc(Nc2nccc(-c3ccc4ccccc4c3)n2)c1 :
no (0)

Assay result, entry Cc1c(C(=O)NNC(=O)Nc2ccc(Cl)cc2)nnn1-c1ccc(Br)cc1 — outcome?
no (0)

Could you kindly confirm the outcome this assay logged for N#Cc1ccc(C(=O)Nn2c(N)cc3ccccc3c2=O)cc1 ?
no (0)

Would you mind telling me which call this test gave O=C(Nc1cccc(-n2cnc3cc(-c4ccc(O)cc4)ccc32)c1)C1CC1 ?
yes (1)

Hi, do you know how CN(C)c1nc(NCCNS(=O)(=O)c2ccc(C3=Nc4c(N)nc(N)nc4NC(c4ccccc4)C3)cc2)nc(Nc2ccc(F)cc2)n1 (stereo unspecified) came out in this test?
no (0)

Name the outcome recorded for COCOc1ccc2c(=O)c(C)c(C(=O)N[C@@H](Cc3ccccc3)C(O)C(=O)NCCc3ccc(OC)cc3)oc2c1 (stereo partly specified) in the assay.
no (0)

Hi, sorry to bother you, what did the test record for CN(C)c1ccnc(CNCCSC2(c3ccc(C(F)(F)F)cc3)c3ccccc3CCc3ccccc32)c1 ?
yes (1)

Just curious, what result did C=C1CCC2C3(C)COC(c4ccccc4)OC3CCC2(C)C1CC(Sc1ccccc1)C1=CCOC1=O (stereo unspecified) get here?
no (0)
